Test system: Wolbachia pipientis
METHOD: Anti-Wolbachia Cell-Based Screen
Assay type: functional
Set-up: scale not given: in the data most compounds retested in dose-response had high values
STUDY_CONDITIONS: 5 µM
About 13,000 (27%) of roughly 48,000 compounds showed an effect of 50% or more. The list shows a part of the results.
MEASUREMENT_LABEL: Percent Effect (%)
Report the value in % with no unit label.

Check out these entries, answers already filled in.
Task item: Give a short answer stating reported Percent Effect for "COc1ccc(CN2CC[C@@H](N)[C@@H](OC)C2)cc1Cn1cncn1" .
Reply: 18.6

Task item: Check the records and state Percent Effect for "Cc1ccc(C)c(-n2ccc3nc(N4CCCC4)ncc3c2=O)c1"
Reply: -2.601

Task item: Hello, please tell me recorded Percent Effect for this one: O=C(C(c1ccccc1)N1CCc2cncnc2C1)N1CCCCC1 (stereo unspecified)
Reply: -0.8294

Task item: Supply measured Percent Effect of "CN(C)c1ccc(NC(=O)CN2CCS(=O)(=O)CC2)cn1" in your reply.
Reply: 10.44

Task item: Quick one: give measured Percent Effect for "CCOCCn1nc(C)cc1C(=O)N1CC(C)(C)[C@@](C)(O)C1"
Reply: -27.83

# evaluate next
Task item: State its Percent Effect for this compound: "Cc1ccccc1[C@@H]1CN(CCOCCO)C[C@H]1C(=O)O"
Reply: -28.11

---

Parameter: Percent Effect. Scope: all listed entries.
System: Wolbachia pipientis
METHOD: Anti-Wolbachia Cell-Based Screen
Type: functional
Design: scale not given: in the data most compounds retested in dose-response had high values
STUDY_CONDITIONS: 5 µM
Hit rate of the full screen: of about 48,000 compounds, about 13,000 (27%) showed an effect of 50% or more. This is one part of the list.
Give the number; % is assumed, so skip it.

Task item: Consider the compound COc1ccc(-n2ccc(C(=O)NCCN3CCCCC3C)n2)cc1 (configuration not stated) and give its recorded Percent Effect.
Reply: -3.568

Task item: Indicate the recorded Percent Effect value for this compound: "COc1cccc(OCC(=O)NS(=O)(=O)c2ccc(C)s2)c1"
Reply: 7.75

Task item: Supply reported Percent Effect belonging to this compound: Cc1nc(CNC(=O)NCC(O)c2ccc(F)c(F)c2)cs1 (configuration not stated)
Reply: 9.084

Task item: Look up and state reported Percent Effect for "COc1cc2nc(C)n(CC(=O)O)c(=O)c2cc1OC"
Reply: 17.35

Task item: Look up Percent Effect of "Cc1nccc(C(=O)N2CCCN(Cc3cnn(C(C)C)c3)CC2)n1" and report it.
Reply: 5.245

Further cases:
Task item: Give the reported value of Percent Effect for this record: Cc1cccc(-c2nnc(C(C)NCCn3cc(C)cn3)o2)c1 (configuration not stated)
Reply: -10.86

Task item: Note Percent Effect for the compound shown: "CCN(CC)CCNC(=O)c1cnc(-c2ccccc2)nc1"
Reply: 14.16

Task item: Answer with the recorded Percent Effect for the compound listed here: "CCN(CC)CCNc1c(-c2ccccc2)c(=O)c1=O"
Reply: 104.3

Task item: Query Percent Effect for "O[C@@H]1CN(CC2=Cc3cc(Cl)ccc3OC2)CC[C@H]1N1CCCCCC1"
Reply: 0.906

Task item: Note down Percent Effect recorded for "CCCN(CCC)CCNc1c(-c2ccccc2)c(=O)c1=O"
Reply: 97.32

Task item: Name the recorded Percent Effect of the compound listed here: Cn1cc(C(=O)N2CCCC(c3ncc[nH]3)C2)cn1 (configuration not stated)
Reply: -9.118

Task item: Given the compound "COc1cccc(OCC(=O)NS(=O)(=O)c2ccc(Br)s2)c1" , write its reported Percent Effect.
Reply: 93.04

Task item: Consider the compound O=C(CCc1ccccc1)C1CCCN(C(=O)c2ncc(F)cc2F)C1 (configuration not stated) . State its measured Percent Effect.
Reply: -13.78

Task item: Give Percent Effect for the following compound: CCOCC1CCN(C(=O)Nc2ccc(-c3csnn3)cc2)C1 (configuration not stated)
Reply: -10.06

Task item: Could you please provide reported Percent Effect for "NC(=O)c1csc(N2CCN(Cc3cccc4nsnc34)CC2)n1" ? Thanks!
Reply: -1.05

Task item: Give a short answer stating reported Percent Effect for COc1cc(Cl)cc(CN2CCCC(N3CCCC3)C2)c1OC (configuration not stated) .
Reply: 116

Task item: Quickly give me recorded Percent Effect for Cc1cc(=O)[nH]c(SC(C)C(=O)N2CCC(c3ncc[nH]3)CC2)n1 (configuration not stated)
Reply: -1.396

Task item: Recall and state the measured Percent Effect for CSCc1ccc(N2CCC(C(O)CC(C)C)CC2)nc1 (configuration not stated) .
Reply: -3.23

Task item: Kindly indicate its recorded Percent Effect. Item: "CN(C)CCNc1ccc(-c2nc(COc3ccccc3)no2)cn1"
Reply: -0.8633

Task item: Read off the recorded Percent Effect for "COc1ccccc1OCC(=O)NS(=O)(=O)c1ccc(Cl)cc1F"
Reply: 6.198

Task item: Respond only with Percent Effect recorded for CC(C)c1nnc(CNC2CCCN(Cc3noc(C4CC4)n3)C2)o1 (configuration not stated)
Reply: 144.7

Task item: Report measured Percent Effect; entry is "COc1ccc(-n2ccc(C(=O)NCCN3CCCCC3)n2)cc1"
Reply: 102.6
